# system: T1, FLT3xCD3 TCE SEQ ID NO 93
# T1 construct: Single-chain scFv-scFv-scFc T cell engager; also called FLT3×CD3ε TCE; FLT3_7 A8xCD3-scFc Bispecific HLE molecule
# experiment_description: KinExA association kinetics, Table 5
Where no end group is shown, it is not given here. Side-chain parts run from the residue outwards. [ ]: non-standard residue; d: D form. pGlu = O=C1CC[C@@H](C(=O)O)N1; disulfide = not defined here
readout: kon (M⁻¹ s⁻¹)
Write the answer as a number in M⁻¹ s⁻¹, unit excluded.

kon in this record for QDGNEEMGGMEENGDQ (how the reversed half is joined is not explained) [QDGNEEMG-GMEENGDQ] : 476000

kon in this record for QDGNEEMGKGMEENGDQC(4‑arm PEG 20 kDa) (also: four peptides on one 4-arm PEG, Peptide-PEG conjugate with four peptides on one PEG; also called CD3ε PepPOL, v1 (20 kDa); 4-arm 20 kDa PepPOL conjugate) [(QDGNEEMGKGMEENGDQC)4 -PEG(20 kDa)] : 199000

kon in this record for QDGNEEMGKQDGNEEMG [QDGNEEMG-K-QDGNEEMG] : 448000

More entries:
kon in this record for [pGlu]DGNEEMGKGMEENGDQC([disulfide-4‑arm PEG 20 kDa]) (reading uncertain; also: four peptides on one 4-arm PEG, printed as pGlu-DGNEEMGKGMEENGDQC, also called CD3ε PepPOL, v2; Pep-PEG v2) [(pGlu-DGNEEMGKGMEENGDQC)4 -PEG(20 kDa)] : 1.12e+07

kon in this record for QDGNEEMGQDGNEEMG [QDGNEEMG-QDGNEEMG] : 533000

kon in this record for QDGNEEMG : 692000

kon in this record for QDGNEEMGK [QDGNEEMG-K] : 806000

Taken from patent US20260258083A1.
